Catalogue of IC50 values
- TARGET ENTITY: CDK4/cyclin D1 (Homo sapiens (Human), UniProt P11802)
- Sequence (P11802 whole entry): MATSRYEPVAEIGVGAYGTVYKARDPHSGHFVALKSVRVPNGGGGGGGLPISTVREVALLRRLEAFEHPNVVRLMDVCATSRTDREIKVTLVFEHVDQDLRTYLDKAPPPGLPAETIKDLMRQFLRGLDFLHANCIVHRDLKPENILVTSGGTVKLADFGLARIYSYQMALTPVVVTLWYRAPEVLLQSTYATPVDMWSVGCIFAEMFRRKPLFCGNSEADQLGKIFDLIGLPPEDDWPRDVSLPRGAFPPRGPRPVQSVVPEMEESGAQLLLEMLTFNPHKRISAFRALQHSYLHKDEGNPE
- Sequence (P24385 whole entry partner): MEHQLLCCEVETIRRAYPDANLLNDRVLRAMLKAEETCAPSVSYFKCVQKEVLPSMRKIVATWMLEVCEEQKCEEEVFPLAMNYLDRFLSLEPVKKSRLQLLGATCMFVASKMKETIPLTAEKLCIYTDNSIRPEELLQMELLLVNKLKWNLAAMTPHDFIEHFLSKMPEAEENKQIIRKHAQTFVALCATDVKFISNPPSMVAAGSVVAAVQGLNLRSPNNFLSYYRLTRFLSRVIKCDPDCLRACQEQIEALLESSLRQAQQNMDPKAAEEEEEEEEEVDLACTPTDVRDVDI
- PROCEDURE TEXT: CDK4/Cyclin D1 enzymatic activity assay (Lance TR-FRET)
- Assay type: biochemical
- CONDITION DETAILS: Table 2; 3 μM ATP; read-out: CDK4

[
  {
    "MOLECULE": "CC(C)CCCN1CCN(c2ccc(Nc3ncc4cc(C(=O)N(C)C)n(C5CCCC5)c4n3)nc2)CC1 [Example 68]",
    "IC50": "1 to 10 nM"
  }
]

Memo: CC1CN(c2ccc(Nc3ncc4cc(C(=O)N(C)C)n(C5CCCC5)c4n3)nc2)CCN1 (centres unmarked) [Example 19] , reported IC50: 1 to 10 nM

Memo: CN(C)C(=O)c1cc2cnc(Nc3cnc(N4CCNCC4)cn3)nc2n1C1CCCC1 [Example 48] , reported IC50: 100 to 1000 nM

Memo: CN(C)C(=O)c1cc2cnc(Nc3ccc(C(=O)N4CCNCC4)cn3)nc2n1C1CCCC1 [Example 49] , reported IC50: 10 to 100 nM

Memo: CN(C)C(=O)c1cc2cnc(Nc3ccc(N4CCN(CC(F)(F)F)CC4)cn3)nc2n1C1CCCC1 [Example 25] , reported IC50: 10 to 100 nM

Memo: CN(C)C(=O)c1cc2cnc(Nc3ccc(N4CCN(CCO)CC4)nn3)nc2n1C1CCCC1 [Example 37] , reported IC50: 10 to 100 nM

Memo: CN(C)C(=O)c1cc2cnc(Nc3ccc(N4CCN(CC#N)CC4)cn3)nc2n1C1CCCC1 [Example 84] , reported IC50: 10 to 100 nM

Memo: CN(C)C(=O)c1cc2cnc(Nc3ccc(C4CCN(CCO)CC4)cn3)nc2n1C1CCCC1 [Example 100] , reported IC50: 10 to 100 nM

----------
- TARGET ENTITY: CDK1/cyclin B (Homo sapiens (Human), UniProt P06493)
- Sequence (P06493 whole entry, species assumed): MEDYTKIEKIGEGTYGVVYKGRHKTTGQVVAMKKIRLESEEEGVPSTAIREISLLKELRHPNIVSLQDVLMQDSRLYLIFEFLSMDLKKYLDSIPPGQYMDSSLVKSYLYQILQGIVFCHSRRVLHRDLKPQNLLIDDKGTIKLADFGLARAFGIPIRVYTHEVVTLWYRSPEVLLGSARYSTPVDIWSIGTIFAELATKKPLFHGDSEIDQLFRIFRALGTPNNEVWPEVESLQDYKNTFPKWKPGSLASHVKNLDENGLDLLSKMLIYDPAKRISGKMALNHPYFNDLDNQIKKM
- Sequence (P14635 whole entry partner, species assumed): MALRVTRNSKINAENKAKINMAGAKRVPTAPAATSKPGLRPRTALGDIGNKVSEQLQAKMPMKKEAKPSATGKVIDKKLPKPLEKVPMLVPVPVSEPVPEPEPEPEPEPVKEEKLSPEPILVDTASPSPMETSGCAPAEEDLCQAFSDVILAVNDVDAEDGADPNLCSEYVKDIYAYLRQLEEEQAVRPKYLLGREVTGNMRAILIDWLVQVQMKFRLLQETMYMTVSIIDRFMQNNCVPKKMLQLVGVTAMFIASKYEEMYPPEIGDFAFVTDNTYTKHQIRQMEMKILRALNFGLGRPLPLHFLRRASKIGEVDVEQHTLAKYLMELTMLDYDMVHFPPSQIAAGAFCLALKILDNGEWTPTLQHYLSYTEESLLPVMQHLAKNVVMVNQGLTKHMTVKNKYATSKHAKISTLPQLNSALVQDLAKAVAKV
- PROCEDURE TEXT: CDK1/Cyclin B enzymatic activity assay (IMAP-FP)
- Assay type: biochemical
- CONDITION DETAILS: Table 2; 20 μM ATP; read-out: CDK1
- Text: A 384-well microtiter IMAP-FPT™ (Molecular Devices Trade Mark Technology) endpoint assay was used for CDK1/cyclin B kinase activity measurements. The same assay was used for IC50 determination of small molecule inhibitors.
pIC50: −log10 of the molar value.
QUANTITY NAME: pIC50

[
  {
    "MOLECULE": "CN(C)C(=O)c1cc2cnc(Nc3ccc(CN4CC(O)C4)cn3)nc2n1C1CCCC1 [Example 10A]",
    "TARGET ENTITY": "CDK1/cyclin B (Homo sapiens (Human), UniProt P06493)",
    "QUANTITY NAME": "pIC50",
    "REPORTED VALUE": 4.92
  }
]

// moving on: another record for pIC50
Value sought: pIC50, system CDK1/cyclin B (Homo sapiens (Human), UniProt P06493), item CN(C)C(=O)c1cc2cnc(Nc3ccc(CN4CCN(C(=O)CN)CC4)cn3)nc2n1C1CCCC1 . Result: < 4.82

----------
- TARGET ENTITY: CDK1/cyclin B (Homo sapiens (Human))
- PROCEDURE TEXT: CDK1/Cyclin B enzymatic activity assay (IMAP-FP)
- Format: biochemical
- CONDITION DETAILS: Table 2; 20 μM ATP; read-out: CDK1
pIC50: −log10 of the molar value.
Catalogue of pIC50 values

The examples below pair each entry with its known result.
[
  {
    "COMPOUND": "CN(C)C(=O)c1cc2cnc(Nc3ccc(CN4CCN(S(C)(=O)=O)CC4)cn3)nc2n1C1CCCC1",
    "REPORTED VALUE": "< 4.82"
  },
  {
    "COMPOUND": "CN(C)C(=O)c1cc2cnc(Nc3ccc(N4CCN(C(=O)CC5CCCCC5)CC4)cn3)nc2n1C1CCCC1",
    "REPORTED VALUE": "< 4.82"
  },
  {
    "COMPOUND": "CC(C)CN1CCN(c2ccc(Nc3ncc4cc(C(=O)N(C)C)n(C5CCCC5)c4n3)nc2)CC1",
    "REPORTED VALUE": "< 4.82"
  }
]

// moving on: another record for pIC50
Value sought: pIC50, system CDK1/cyclin B (Homo sapiens (Human)), item CN(C)C(=O)c1cc2cnc(Nc3ccccn3)nc2n1C1CCC(C)(O)CC1 (stereo not shown) . Result: < 4.82

----------
- TARGET ENTITY: CDK1/cyclin B (Homo sapiens (Human))
- PROCEDURE TEXT: CDK1/Cyclin B enzymatic activity assay (IMAP-FP)
- Format: biochemical
- CONDITION DETAILS: Table 4; read-out: IC50 (μM) CDK1
Catalogue of IC50 values

The examples below pair each entry with its known result.
[
  {
    "MOLECULE": "O=C(c1cc2cnc(Nc3ccc(N4CCNCC4)cc3)nc2n1C1CCCC1)N1CCC1 [Example 201, reference compound]",
    "REPORTED VALUE": "7.5 µM"
  },
  {
    "MOLECULE": "Cc1c(C(=O)N(C)C)n(C2CCCC2)c2nc(Nc3ccc(N4CCNCC4)cn3)ncc12 [Example 202, reference compound]",
    "REPORTED VALUE": "> 15 µM"
  },
  {
    "MOLECULE": "CC(C)N1CCN(c2ccc(Nc3ncc4cc(C(=O)N(C)C)n(C5CCCC5)c4n3)nc2)CC1",
    "REPORTED VALUE": "> 15 µM"
  }
]

Memo: CN(C)C(=O)c1cc2cnc(Nc3ccc(N4CCN(CCO)CC4)cn3)nc2n1C1CCCC1 , reported IC50: > 15 µM

Memo: CN(C)C(=O)c1cc2cnc(Nc3ccc(N4CCNCC4)cc3)nc2n1C1CCCC1 [Example 200, reference compound] , reported IC50: > 1.6 µM

----------
- TARGET ENTITY: CDK1/cyclin B (Homo sapiens (Human), UniProt P06493)
- PROCEDURE TEXT: CDK1/Cyclin B enzymatic activity assay (IMAP-FP)
- Type: biochemical
- CONDITION DETAILS: Table 2; 20 μM ATP; read-out: CDK1
pIC50: −log10 of the molar value.
QUANTITY NAME: pIC50

[
  {
    "COMPOUND": "C[C@@H]1CN(c2ccc(Nc3ncc4cc(C(=O)N(C)C)n(C5CCCC5)c4n3)nc2)CCN1 [Example 16]",
    "pIC50": "< 4.82"
  },
  {
    "COMPOUND": "CN(C)C(=O)c1cc2cnc(Nc3ccc(N4CCN(C(=O)OC(C)(C)C)CC4)nn3)nc2n1C1CCCC1 [Example 45]",
    "pIC50": "< 4.82"
  },
  {
    "COMPOUND": "CN(C)C(=O)c1cc2cnc(Nc3ccc(N4CCNCC4)nn3)nc2n1C1CCCC1 [Example 67]",
    "pIC50": "< 4.82"
  },
  {
    "COMPOUND": "CN(C)C(=O)c1cc2cnc(Nc3ccc(N4CCN(C[C@H](O)CO)CC4)cn3)nc2n1C1CCCC1 [Example 29]",
    "pIC50": 4.82
  },
  {
    "COMPOUND": "CN(C)C(=O)c1cc2cnc(Nc3ccc(N4CCN(C(=O)N5CCOCC5)CC4)cn3)nc2n1C1CCCC1 [Example 38]",
    "pIC50": "< 4.82"
  }
]

Memo: CN(C)C(=O)c1cc2cnc(Nc3ccc(N4CCN(C(=O)CN)CC4)cn3)nc2n1C1CCCC1 [Example 12] , reported pIC50: < 4.82

Memo: CC1CN(Cc2ccc(Nc3ncc4cc(C(=O)N(C)C)n(C5CCCC5)c4n3)nc2)CCN1 (centres unmarked) [Example 54] , reported pIC50: < 4.82

Memo: CNC(=O)c1cc2cnc(Nc3ccc(N4CCN(C(C)C)CC4)cn3)nc2n1C1CCCC1 [Example 51] , reported pIC50: < 4.82

Memo: c1ncc(-c2cc3cnc(Nc4ccc(N5CCNCC5)cn4)nc3n2C2CCCC2)o1 [Example 11] , reported pIC50: 5.89

Memo: CN(C)C(=O)c1cc2cnc(Nc3ccc(C(=O)N4CCC(O)CC4)cn3)nc2n1C1CCCC1 [Example 87] , reported pIC50: 4.89

Memo: CC(C)N1CCC(c2ccc(Nc3ncc4cc(C(=O)N(C)C)n(C5CCCC5)c4n3)nc2)CC1 [Example 80] , reported pIC50: < 4.82

Memo: CN(C)C(=O)c1cc2cnc(Nc3ccc(N4CC(O)C4)cn3)nc2n1C1CCCC1 [Example 32] , reported pIC50: < 4.82

Memo: CC(C)N1CCN(c2ccc(Nc3ncc4cc(C(=O)N(C)C)n(C5CCCC5)c4n3)nn2)CC1 [Example 70] , reported pIC50: < 4.82

Memo: C[C@@H]1CN(c2ccc(Nc3ncc4cc(C(=O)N(C)C)n(C5CCCC5)c4n3)nc2)CCN1C(=O)OC(C)(C)C [Example 30] , reported pIC50: < 4.82

Memo: CN(C)C(=O)c1cc2cnc(Nc3ccc(N4CCC(CCO)CC4)cn3)nc2n1C1CCCC1 [Example 35] , reported pIC50: 5.33

Memo: CN(C)C(=O)c1cc2cnc(Nc3ccc(N4CCC(N(C)C)CC4)cn3)nc2n1C1CCCC1 [Example 6] , reported pIC50: < 4.82

Memo: CN(C)C(=O)c1cc2cnc(Nc3ccc(C(=O)N(C)CCN)cn3)nc2n1C1CCCC1 [Example 41] , reported pIC50: 4.83

Memo: C[C@H]1CN(c2ccc(Nc3ncc4cc(C(=O)N(C)C)n(C5CCCC5)c4n3)nc2)CCN1CCO [Example 82] , reported pIC50: < 4.82

Memo: CN(C)C(=O)c1cc2cnc(Nc3ccc(N4CCN(CCC#N)CC4)cn3)nc2n1C1CCCC1 [Example 9] , reported pIC50: < 4.82

Memo: CN(C)C(=O)c1cc2cnc(Nc3ccc(CN4CCC(O)CC4)cn3)nc2n1C1CCCC1 [Example 76] , reported pIC50: < 4.82

Memo: CN(C)C(=O)c1cc2cnc(Nc3ccc(N4CCCNCC4)cn3)nc2n1C1CCCC1 [Example 8] , reported pIC50: 4.85

Memo: CN(C)C(=O)c1cc2cnc(Nc3ccc(N4CCN(CC(F)(F)F)CC4)cn3)nc2n1C1CCCC1 [Example 25] , reported pIC50: < 4.82

Memo: COC(=O)C(C)N1CCN(c2ccc(Nc3ncc4cc(C(=O)N(C)C)n(C5CCCC5)c4n3)nc2)CC1 (centres unmarked) [Example 101] , reported pIC50: < 4.82

Memo: CN(C)C1CCN(c2ccc(Nc3ncc4cc(C#N)n(C5CCCC5)c4n3)nc2)CC1 [Example 47] , reported pIC50: 5.59

Memo: CN(C)C(=O)c1cc2cnc(Nc3ccc(N4CCN(CCF)CC4)cn3)nc2n1C1CCCC1 [Example 86] , reported pIC50: < 4.82

Memo: CN(C)C(=O)c1cc2cnc(Nc3cnc(N4CCNCC4)cn3)nc2n1C1CCCC1 [Example 48] , reported pIC50: < 4.82
